METHOD DESCRIPTION: Metabolic stability in mouse liver microsomes assessed as half life in presence of NADPH incubated for 30 mins by LC-MS/MS analysis
Assay type: ADME, Microsome
Quick rule for you: half-life at 5 min or higher means y, lower means n.

{"STRUCTURE SMILES STRING": "CCOc1ccccc1C(=O)N1CCN(Cc2ccccc2)C[C@@H]1C(=O)NC[C@H]1CCCCO1", "CLASS NAME": "y"}
{"STRUCTURE SMILES STRING": "CCC[C@@H](NC(=O)c1cccnc1OC)C(=O)N1CCC(CCN(CCOC)C2CCN(C)CC2)CC1", "CLASS NAME": "y"}
{"STRUCTURE SMILES STRING": "CCOc1ccccc1C(=O)N1CCN(C2CCCC2)C[C@@H]1C(=O)NC[C@H]1CCCCO1", "CLASS NAME": "y"}
{"STRUCTURE SMILES STRING": "C=CCOc1ccccc1CN(CC(=O)N1CCC(CC(=O)NC2CC2)CC1)C1CCN(C)CC1", "CLASS NAME": "y"}
{"STRUCTURE SMILES STRING": "C=CCOc1ccccc1CN(CC(=O)N1CCC(CC(=O)NC2CC2)CC1)C(C)C", "CLASS NAME": "y"}
{"STRUCTURE SMILES STRING": "CCOc1ccccc1C(=O)N1CCN(C2CCCC2)C[C@@H]1C(=O)NC[C@@H]1CCCCO1", "CLASS NAME": "n"}
{"STRUCTURE SMILES STRING": "CCOc1ccccc1C(=O)N1CCN(Cc2ccccc2)C[C@@H]1C(=O)NC[C@@H]1CCCCO1", "CLASS NAME": "n"}
{"STRUCTURE SMILES STRING": "C=CCOc1ccccc1CN(CC(=O)N1CCC(CC(=O)NC2CC2)CC1)Cc1ccccc1", "CLASS NAME": "n"}
{"STRUCTURE SMILES STRING": "CCC[C@H]1NC(=O)c2cccnc2OCCOCCN(C2CCCC2)CC2CCN(CC2)C1=O", "CLASS NAME": "y"}
